# testedOn: T1, human C5a (source not stated) (human, UniProt P01031 678-751)
# T1 sequence: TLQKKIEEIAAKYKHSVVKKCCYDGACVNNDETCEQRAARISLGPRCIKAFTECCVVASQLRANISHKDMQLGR
# protocolText: cell-based or functional assay
Here, each record is paired with measured ROS IC50 data.
Give a bare numeral; the unit nM is implied.

Examples from the recorded data:
1. Cab12 scFv (scFv, V domains shown) VH: VVQLVESGGGLVQPGGSLKVSCAASGFTFSDYYMQWVRQAPGKGPEWVGLIRNKAIGETTQYAASVKGRFTISRDDSKSIVYLQMSSLKTEDTAVYYCVSRAGPPGLSWGQGVLVTISS VL: DIVLTQTPLSLPVTPGEPASISCRSSQRLLHSDGYTYMDWYLQKPGQSPQILIYGGSNRASGVPDRFSGSGSGTDFTLKISKVEAEDVGVYYCMQHKALPPTFGQGTKLEIK    1.22
2. Cab02 scFv (scFv, V domains shown) VH: EVQLVESGGGLVQPGGSLKVSCAASGFIFSDYYMQWVRQAPGKGPEWVGLIRKKVNGGTTEYAASVKGRFTISRDDSKSIAYLQMSSLKIEDTAVYYCVSRAGPPGLTWGQGVLVTISS VL: DIVMIQTPLSLPVTPGEPASISCRSSQRLLHSDGYTYLDWYLQKPGQSPQLLIYGGSNRASGVPDRFSGSGSGTDFTLKISKVEAEDVGVYYCMQHKALPLTFGGGTKLEIK    1.67

Request: Given Cab07 scFv (scFv, V domains shown) VH: DVQLVESGGGLVQPGGSLKVSCAASGFTFSDYYMQWVRQAPGKGPEWVGLIRNKAIGETTEYAASVKGRFTISRDDSKSIVYLQMSSLKTEDTAVYYCVSRAGPPGLSWGQGVLVTISS VL: DTVMTQIPLSLSVTPGEPASISCRSSQRLLHTDGYTYLDWYHQKPGQSPQLLIYGGSNRASGVPDRFSGSGSVTDFTLKISKMEAEDVGVYYCMQHKALPPTFGGGTKLEIK , state its recorded ROS IC50.
Response: 1.07

Request: Given Cab11 scFv (scFv, V domains shown) VH: EVQLVESGGGLVQPGGSLRVSCAASGFRFSDFYMQWVRQAPGKRPEWVGLIRNKPYGGTAEYAASVKGRFTISRDDSKSVTDLQMSSLKTEDTAIYYCVMRNNGYHWGQGVLVTISS VL: DAVMTQIPLSLPVTPGEPASISCRSSQSLLHTDGYTYLDWYLQKPGQSPQLLIYGGSNRASGVPDRFSGSGSGTDFTLKISKVEAEDVGVYYCMQHKALPPTFGGGTKLEIK , state its recorded ROS IC50.
Response: 1.57

Request: Given Cab20 scFv (scFv, V domains shown) VH: EVQLVESGGGLVQPGGSLKVSCAASGFTFRDYYMQWVRQAPGKGPEWVGLIRNKAIGETAEYAASVKGRFTISRDDSKSIVYLQMSSLKTEDTAVYYCTSRAGPPGLSWGQGVLVTVSS VL: DIVMIQNPLSLPVTPGEPASISCRSSQSLLHSDGYTYLDWYLQKPGQSPQLLIYGGSNRASGVPDRFSGSGSGTDFTLKISKVEAEDVGVYYCMQHKVLPLTFAGGTKLEIK , state its recorded ROS IC50.
Response: 0.81

Request: Given Cab37 (reformatted as human IgG1) (antibody, V domains shown) VH: EMQLVESGGGLVQPGGSLRLSCAASGFTFSDYYMQWVRQAPGKGPEWVGLIRNKAVGFTTQYAASVKGRFTISRDDSKNSVYLQMNSLKTEDTAVYYCVSRAGPPGLSWGQGVLVTVSS VL: DIVMTQSPLSLPVTPGEPASISCRSSQSLLASDGYNYIDWYLQKPGQSPQLLIYGGSNRASGVPDRFSGSGSGTDFTLKISRVEAEDVGVYFCLQHRALPPTFGQGTKLEIK , state its recorded ROS IC50.
Response: 0.92

Request: Given Cab41 (reformatted as human IgG1) (antibody, V domains shown) VH: EMQLVESGGGLVQPGGSLRLSCAASGFTFSDYYMQWVRQAPGKGPEWVGLIRNKAVGRTTQYAASVKGRFTISRDDSKNSVYLQMNSLKTEDTAVYYCVSRAGPPGLSWGQGVLVTVSS VL: DIVMTQSPLSLPVTPGEPASISCRSSQSLLASDGYNYIDWYLQKPGQSPQLLIYGGSNRASGVPDRFSGSGSGTDFTLKISRVEAEDVGVYFCLQHRALPPTFGQGTKLEIK , state its recorded ROS IC50.
Response: 0.7

Request: Given Cab29 scFv (scFv, V domains shown) VH: DMQLVESGGGLVQPGGSLKVSCAASGFTFSDYYMQWVRQAPGKGPEWVGLIRNKAVGGTTQYAASVKGRFTISRDDSKSIVYLEMSSLKTEDTAVYYCVSRAGPPGLSWGQGVLVTVSS VL: DIVMIQNPLSLSVSLGEPASISCRSSQSLLATDGYEYLDWYLQKPGQSPQILIYGASNRASGVPDRFSGRGSGTDFTLKITKVEAEDVGVYYCLQHKALPPTFGQGTKLEIK , state its recorded ROS IC50.
Response: 0.96

Request: Given Cab40 (reformatted as human IgG1) (antibody, V domains shown) VH: EMQLVESGGGLVQPGGSLRLSCAASGFTFSDYYMQWVRQAPGKGPEWVGLIRNKAVGQTTQYAASVKGRFTISRDDSKNSVYLQMNSLKTEDTAVYYCVSRAGPPGLSWGQGVLVTVSS VL: DIVMTQSPLSLPVTPGEPASISCRSSQSLLASDGYNYIDWYLQKPGQSPQLLIYGGSNRASGVPDRFSGSGSGTDFTLKISRVEAEDVGVYFCLQHRALPPTFGQGTKLEIK , state its recorded ROS IC50.
Response: 0.7

Request: Given Cab33 (reformatted as human IgG1) (antibody, V domains shown) VH: EMQLVESGGGLVQPGGSLRLSCAASGFTFSDYYMQWVRQAPGKGPEWVGLIRNKAVGGTTQYAASVKGRFTISRDDSKNSVYLQMNSLKTEDTAVYYCVSRAGPPGLSWGQGVLVTVSS VL: DIVMTQSPLSLPVTPGEPASISCRSSQSLLASDGYNYIDWYLQKPGQSPQLLIYGGSNRASGVPDRFSGSGSGTDFTLKISRVEAEDVGVYFCLQHKALPPTFGQGTKLEIK , state its recorded ROS IC50.
Response: 1.7
